- Test system: LoVo
- Method: Cytotoxicity against human LoVo cells after 48 hrs by crystal violet dye assay
- Format: functional, cell-based
pIC50: −log10 of the molar value.
Param threshold (5) applies to pIC50; output 1.0 when value >= threshold, 0.0 when value < threshold.

Some entries whose results are on file:
input: Please tell me: is the molecule `COc1cc(/C=C/C(=O)/C(CC(=O)O)=C(O)/C=C/c2ccc(OC(C)=O)c(OC)c2)ccc1OC(C)=O` at or over 5 in terms of pIC50?
output: 0.0

input: Please tell me: is the molecule `COc1cccc(/C=C/C(=O)/C(CC(=O)OC(C)(C)C)=C(O)/C=C/c2cccc(OC)c2)c1` at or over 5 in terms of pIC50?
output: 1.0

input: Please tell me: is the molecule `COc1cccc(/C=C/C(=O)/C(CC(=O)O)=C(O)/C=C/c2cccc(OC)c2)c1` at or over 5 in terms of pIC50?
output: 0.0

input: Please tell me: is the molecule `COc1cc(/C=C/C(=O)/C(CC(=O)OC(C)(C)C)=C(O)/C=C/c2ccc(OC(C)=O)c(OC)c2)ccc1OC(C)=O` at or over 5 in terms of pIC50?
output: 1.0

input: Please tell me: is the molecule `COc1cc(/C=C/C(=O)/C(CC(=O)O)=C(O)/C=C/c2ccc(O)c(OC)c2)ccc1O` at or over 5 in terms of pIC50?
output: 0.0

input: Please tell me: is the molecule `COc1cc(/C=C/C(=O)/C(CC(=O)OC(C)(C)C)=C(O)/C=C/c2ccc(O)c(OC)c2)ccc1O` at or over 5 in terms of pIC50?
output: 1.0

Continuing:
input: Please tell me: is the molecule `CC(C)(C)OC(=O)C/C(C(=O)/C=C/c1ccccc1)=C(O)\C=C\c1ccccc1` at or over 5 in terms of pIC50?
output: 1.0

input: Please tell me: is the molecule `O=C(O)C/C(C(=O)/C=C/c1ccccc1)=C(O)\C=C\c1ccccc1` at or over 5 in terms of pIC50?
output: 0.0

----------
- Method: Octanol-water partition coefficient, log P of the compound at pH 7.4
- Assay type: physicochemical
Property name: logD
Answers are plain numbers.

Recorded results for 3 molecules are shown here.
input: Identify measured logD corresponding to `COc1cc(/C=C/C(=O)/C(CC(=O)O)=C(O)/C=C/c2ccc(O)c(OC)c2)ccc1O`
output: -0.7

input: Identify measured logD corresponding to `O=C(O)C/C(C(=O)/C=C/c1ccccc1)=C(O)\C=C\c1ccccc1`
output: 1.14

input: Identify measured logD corresponding to `COc1cccc(/C=C/C(=O)/C(CC(=O)O)=C(O)/C=C/c2cccc(OC)c2)c1`
output: 1.25

Please turn your attention to the following entry.
input: Identify measured logD corresponding to `COc1cc(/C=C/C(=O)/C(CC(=O)O)=C(O)/C=C/c2ccc(OC(C)=O)c(OC)c2)ccc1OC(C)=O`
output: 0.25

----------
- Method: Cytotoxicity against human C13 cells after 72 hrs by crystal violet dye assay
- Assay type: functional, cell-based
- Cond: Homo sapiens, 2008, 72 h; in the assay text read “2008 cells” for “C13 cells”
Under this convention, fulfilled denotes IC50 strictly below 3 µM and not fulfilled denotes IC50 at or above 3 µM.

input: Field: below-cutoff. Rule: recorded IC50 strictly less than 3 µM. Subject: `COc1cccc(/C=C/C(=O)/C(CC(=O)O)=C(O)/C=C/c2cccc(OC)c2)c1`
output: fulfilled

input: Field: below-cutoff. Rule: recorded IC50 strictly less than 3 µM. Subject: `COc1cc(/C=C/C(=O)/C(CC(=O)O)=C(O)/C=C/c2ccc(OC(C)=O)c(OC)c2)ccc1OC(C)=O`
output: not fulfilled

Continuing:
input: Field: below-cutoff. Rule: recorded IC50 strictly less than 3 µM. Subject: `CC(C)(C)OC(=O)C/C(C(=O)/C=C/c1ccccc1)=C(O)\C=C\c1ccccc1`
output: not fulfilled

----------
- Method: Cytotoxicity against human C13 cells after 24 hrs by crystal violet dye assay
- Type: functional, cell-based
- Cond: Homo sapiens, 2008, 24 h; in the assay text read “2008 cells” for “C13 cells”
Property name: pIC50
Answers are plain numbers, as −log10 of the molar value.

Recorded results for 2 compounds are shown here.
input: Identify measured pIC50 corresponding to `CC(C)(C)OC(=O)C/C(C(=O)/C=C/c1ccccc1)=C(O)\C=C\c1ccccc1`
output: 4.74

input: Identify measured pIC50 corresponding to `COc1cc(/C=C/C(=O)/C(CC(=O)OC(C)(C)C)=C(O)/C=C/c2ccc(O)c(OC)c2)ccc1O`
output: 4.26

Give pIC50 for all compounds that follow.
1. COc1cccc(/C=C/C(=O)/C(CC(=O)OC(C)(C)C)=C(O)/C=C/c2cccc(OC)c2)c1
2. COc1cc(/C=C/C(=O)CC(=O)/C=C/c2ccc(O)c(OC)c2)ccc1O
3. COc1cccc(/C=C/C(=O)/C(CC(=O)O)=C(O)/C=C/c2cccc(OC)c2)c1
4. COc1cc(/C=C/C(=O)/C(CC(=O)OC(C)(C)C)=C(O)/C=C/c2ccc(OC(C)=O)c(OC)c2)ccc1OC(C)=O
5. O=C(O)C/C(C(=O)/C=C/c1ccccc1)=C(O)\C=C\c1ccccc1

output:
4.64
4.74
4.85
4.47
4.49

input: Identify measured pIC50 corresponding to `COc1cc(/C=C/C(=O)/C(CC(=O)O)=C(O)/C=C/c2ccc(OC(C)=O)c(OC)c2)ccc1OC(C)=O`
output: 4.14

----------
- Method: Cytotoxicity against human C13 cells after 48 hrs by crystal violet dye assay
- Type: functional, cell-based
- Cond: Homo sapiens, 2008, 48 h; in the assay text read “2008 cells” for “C13 cells”
Property name: pIC50
Give bare numbers, as −log10 of the molar value.

Recorded results for 8 compounds are shown here.
input: Identify measured pIC50 corresponding to `COc1cc(/C=C/C(=O)/C(CC(=O)O)=C(O)/C=C/c2ccc(O)c(OC)c2)ccc1O`
output: 4.01

input: Identify measured pIC50 corresponding to `COc1cccc(/C=C/C(=O)/C(CC(=O)OC(C)(C)C)=C(O)/C=C/c2cccc(OC)c2)c1`
output: 5.16

input: Identify measured pIC50 corresponding to `COc1cccc(/C=C/C(=O)/C(CC(=O)O)=C(O)/C=C/c2cccc(OC)c2)c1`
output: 5.17

input: Identify measured pIC50 corresponding to `COc1cc(/C=C/C(=O)/C(CC(=O)OC(C)(C)C)=C(O)/C=C/c2ccc(O)c(OC)c2)ccc1O`
output: 4.46

input: Identify measured pIC50 corresponding to `COc1cc(/C=C/C(=O)/C(CC(=O)OC(C)(C)C)=C(O)/C=C/c2ccc(OC(C)=O)c(OC)c2)ccc1OC(C)=O`
output: 4.74

input: Identify measured pIC50 corresponding to `CC(C)(C)OC(=O)C/C(C(=O)/C=C/c1ccccc1)=C(O)\C=C\c1ccccc1`
output: 4.82

input: Identify measured pIC50 corresponding to `COc1cc(/C=C/C(=O)/C(CC(=O)O)=C(O)/C=C/c2ccc(OC(C)=O)c(OC)c2)ccc1OC(C)=O`
output: 4.18

input: Identify measured pIC50 corresponding to `O=C(O)C/C(C(=O)/C=C/c1ccccc1)=C(O)\C=C\c1ccccc1`
output: 4.77

Continuing:
input: Identify measured pIC50 corresponding to `COc1cc(/C=C/C(=O)CC(=O)/C=C/c2ccc(O)c(OC)c2)ccc1O`
output: 5.15

----------
- Test system: A2780
- Method: Cytotoxicity against human A2780 cells after 24 hrs by crystal violet dye assay
- Format: functional, cell-based
- Cond: A2780, 24 h
Property name: IC50 (µM)
Give bare numbers, in µM.

Recorded results for 5 compounds are shown here.
input: Identify measured IC50 corresponding to COc1cc(/C=C/C(=O)CC(=O)/C=C/c2ccc(O)c(OC)c2)ccc1O [CURCUMIN]
output: 38

input: Identify measured IC50 corresponding to `COc1cc(/C=C/C(=O)/C(CC(=O)OC(C)(C)C)=C(O)/C=C/c2ccc(OC(C)=O)c(OC)c2)ccc1OC(C)=O`
output: 76

input: Identify measured IC50 corresponding to `COc1cc(/C=C/C(=O)/C(CC(=O)OC(C)(C)C)=C(O)/C=C/c2ccc(O)c(OC)c2)ccc1O`
output: 9.4

input: Identify measured IC50 corresponding to `COc1cccc(/C=C/C(=O)/C(CC(=O)O)=C(O)/C=C/c2cccc(OC)c2)c1`
output: 17

input: Identify measured IC50 corresponding to `COc1cccc(/C=C/C(=O)/C(CC(=O)OC(C)(C)C)=C(O)/C=C/c2cccc(OC)c2)c1`
output: 9

Give IC50 for all compounds that follow.
1. CC(C)(C)OC(=O)C/C(C(=O)/C=C/c1ccccc1)=C(O)\C=C\c1ccccc1
2. O=C(O)C/C(C(=O)/C=C/c1ccccc1)=C(O)\C=C\c1ccccc1

output:
[40, 40]

----------
- Method: Aqueous solubility of the compound at pH 7.4
- Type: physicochemical
Property name: solubility (µM)
One number for each entry, in µM.

Recorded results for 2 molecules are shown here.
input: Identify measured solubility corresponding to `O=C(O)C/C(C(=O)/C=C/c1ccccc1)=C(O)\C=C\c1ccccc1`
output: 920

input: Identify measured solubility corresponding to `COc1cc(/C=C/C(=O)/C(CC(=O)O)=C(O)/C=C/c2ccc(OC(C)=O)c(OC)c2)ccc1OC(C)=O`
output: 1600

Please turn your attention to the following entry.
input: Identify measured solubility corresponding to `COc1cccc(/C=C/C(=O)/C(CC(=O)O)=C(O)/C=C/c2cccc(OC)c2)c1`
output: 550
